Reference source: ChEMBL document CHEMBL3525983

- experiment: Cmax in F344/DuCrlCrlj rat at 1 mg/kg, po administered via gavage by LC-MS/MS analysis
- Type: ADME, organism-based
- Design: dose 1 mg/kg, dosed compound name [14C]Rivoglitazone, route oral
- condition-notes: in vivo
assay-metric: Cmax (ng/mL)
Answers are plain numbers, in ng/mL.

**Query** Requested read-out: Cmax. Entry: COc1ccc2nc(COc3ccc(CC4SC(=O)NC4=O)cc3)n(C)c2c1.Cl (racemic)
**Result** 4570

###

- experiment: Terminal elimination half life in monkey at 0.986 mg/kg, iv administered via tail vein by LC-MS/MS analysis
- Type: ADME, organism-based, Macaca mulatta
- Parameters: dose 0.986 mg/kg, dosed compound name [14C]Rivoglitazone, route intravenous
- condition-notes: rhesus monkey, in vivo, read-out: beta t1/2 (converted)
assay-metric: half-life

**Query** Requested read-out: half-life. Entry: COc1ccc2nc(COc3ccc(CC4SC(=O)NC4=O)cc3)n(C)c2c1.Cl (racemic)
**Result** 407 min

###

- experiment: Drug excretion in monkey urine/feces treated with [14C]rivoglitazone at 1 mg/kg, po administered via gavage measured during 0 to 72 hrs by radio-HPLC analysis
- Type: ADME, organism-based, Macaca mulatta
- Parameters: dose 1 mg/kg, dosed compound name [14C]Rivoglitazone, route oral
- condition-notes: rhesus monkey, in vivo
assay-metric: Compound recovery
Quick note: unit goes after the number.

Example cases with answers are listed next.
Cn1c(COc2ccc(CC3SC(=O)NC3=O)cc2)nc2ccc(O[C@@H]3O[C@H](C(=O)O)[C@@H](O)[C@H](O)[C@H]3O)cc21 (stereo not given in full)	2.6%
COc1ccc2nc(COc3ccc(CC4(O)SC(=O)NC4=O)cc3)n(C)c2c1 (stereo not given)	2.1%
COc1ccc2nc(COc3ccc(CC(SC(=O)N[C@@H]4O[C@H](C(=O)O)[C@@H](O)[C@H](O)[C@H]4O)C(=O)O)cc3)n(C)c2c1 (stereo not given in full)	6.6%
CSC(Cc1ccc(OCc2nc3ccc(O[C@@H]4O[C@H](C(=O)O)[C@@H](O)[C@H](O)[C@H]4O)cc3n2C)cc1)C(N)=O (stereo not given in full)	1.2%
CSC(Cc1ccc(OCc2nc3ccc(O)cc3n2C)cc1)C(N)=O (stereo not given)	2.9%

Please give Compound recovery for each item listed below.
1. COc1ccc2nc(COc3ccc(CC(SC)C(=O)O)cc3)n(C)c2c1 (stereo not given)
2. COc1ccc2nc(COc3ccc(CC(C(N)=O)S(C)(=O)=O)cc3)n(C)c2c1 (stereo not given)
3. COc1ccc2nc(COc3ccc(CC4SC(=O)N([C@@H]5O[C@H](C(=O)O)[C@@H](O)[C@H](O)[C@H]5O)C4=O)cc3)n(C)c2c1 (stereo not given in full)
4. O=C1NC(=O)C(Cc2ccc(OCc3nc4ccc(O)cc4[nH]3)cc2)S1 (stereo not given)
5. Cn1c(COc2ccc(CC3SC(=O)NC3=O)cc2)nc2ccc(O)cc21 (stereo not given)

**Result**
0.8%
1.3%
1.4%
3.8%
18%

###

- experiment: Apparent total clearance in monkey at 0.493 mg/kg, po administered via gavage by LC-MS/MS analysis
- Format: ADME, organism-based, Macaca mulatta
- Design: dose 0.493 mg/kg, dosed compound name [14C]Rivoglitazone, route oral
- condition-notes: rhesus monkey, in vivo, read-out: CLt/F
assay-metric: CL/F (mL/min/kg)
Answers are plain numbers, in mL/min/kg.

**Query** Requested read-out: CL/F. Entry: COc1ccc2nc(COc3ccc(CC4SC(=O)NC4=O)cc3)n(C)c2c1.Cl (racemic)
**Result** 0.485

###

- experiment: Volume of distribution at steady state in F344/DuCrlCrlj rat at 0.5 mg/kg, iv administered via tail vein by LC-MS/MS analysis
- Format: ADME, organism-based
- Set-up: dose 0.5 mg/kg, dosed compound name [14C]Rivoglitazone, route intravenous
- condition-notes: in vivo, read-out: Vdss
assay-metric: Vd
Quick note: unit goes after the number.

**Query** Requested read-out: Vd. Entry: COc1ccc2nc(COc3ccc(CC4SC(=O)NC4=O)cc3)n(C)c2c1.Cl (racemic)
**Result** 0.131 L/kg

###

- experiment: Terminal elimination half life in F344/DuCrlCrlj rat at 0.1 mg/kg, iv administered via tail vein by LC-MS/MS analysis
- Format: ADME, organism-based
- Parameters: dose 0.1 mg/kg, dosed compound name [14C]Rivoglitazone, route intravenous
- condition-notes: in vivo, read-out: beta t1/2 (converted)
assay-metric: half-life (h)
Answers are plain numbers, in h.

**Query** Requested read-out: half-life. Entry: COc1ccc2nc(COc3ccc(CC4SC(=O)NC4=O)cc3)n(C)c2c1.Cl (racemic)
**Result** 4.55

###

- experiment: Drug excretion in F344/DuCrlCrlj rat urine/bile treated with [14C]rivoglitazone at 1 mg/kg, po administered via gavage measured during 0 to 48 hrs by radio-HPLC analysis
- Format: ADME, organism-based
- Design: dose 1 mg/kg, dosed compound name [14C]Rivoglitazone, route oral
- condition-notes: in vivo
Values of Compound recovery greater than or equal to 2% map to True; values below map to False.

**Query** Has Cn1c(COc2ccc(CC3SC(=O)NC3=O)cc2)nc2ccc(OS(=O)(=O)O)cc21 (stereo unspecified) a recorded Compound recovery greater than or equal to 2%?
**Result** True

**Query** Ok, now Cn1c(COc2ccc(CC3SC(=O)NC3=O)cc2)nc2ccc(O[C@@H]3O[C@H](C(=O)O)[C@@H](O)[C@H](O)[C@H]3O)cc21 (stereo partly specified)
**Result** False

**Query** Ok, now COc1ccc2nc(COc3ccc(CC4SC(=O)N([C@@H]5O[C@H](C(=O)O)[C@@H](O)[C@H](O)[C@H]5O)C4=O)cc3)n(C)c2c1 (stereo partly specified)
**Result** False

**Query** Ok, now Cn1c(COc2ccc(CC(C(N)=O)S(C)(=O)=O)cc2)nc2ccc(OS(=O)(=O)O)cc21 (stereo unspecified)
**Result** False

**Query** Ok, now COc1ccc2nc(COc3ccc(CC(C(N)=O)[S+](C)[O-])cc3)n(C)c2c1 (stereo unspecified)
**Result** True

**Query** Ok, now CSC(Cc1ccc(OCc2nc3ccc(O[C@@H]4O[C@H](C(=O)O)[C@@H](O)[C@H](O)[C@H]4O)cc3n2C)cc1)C(N)=O (stereo partly specified)
**Result** True

**Query** Ok, now Cn1c(COc2ccc(CC(C(N)=O)[S+](C)[O-])cc2)nc2ccc(OS(=O)(=O)O)cc21 (stereo unspecified)
**Result** True

###

- experiment: AUC (0 to infinity) in monkey at 0.0986 mg/kg, po administered via gavage by LC-MS/MS analysis
- Format: ADME, organism-based, Macaca mulatta
- Parameters: time infinity, dose 0.0986 mg/kg, dosed compound name [14C]Rivoglitazone, route oral
- condition-notes: rhesus monkey, plasma
assay-metric: AUC(0-inf) (ng·h/mL)
Answers are plain numbers, in ng·h/mL.

**Query** Requested read-out: AUC(0-inf). Entry: COc1ccc2nc(COc3ccc(CC4SC(=O)NC4=O)cc3)n(C)c2c1.Cl (racemic)
**Result** 4470

###

- experiment: Volume of distribution at steady state in monkey at 0.0986 mg/kg, iv administered via tail vein by LC-MS/MS analysis
- Type: ADME, organism-based, Macaca mulatta
- Parameters: dose 0.0986 mg/kg, dosed compound name [14C]Rivoglitazone, route intravenous
- condition-notes: rhesus monkey, in vivo, read-out: Vdss
assay-metric: Vd (L/kg)
One number for each entry, in L/kg.

**Query** Requested read-out: Vd. Entry: COc1ccc2nc(COc3ccc(CC4SC(=O)NC4=O)cc3)n(C)c2c1.Cl (racemic)
**Result** 0.166

###

- experiment: Drug excretion in monkey urine assessed as unchanged compound at 1 mg/kg, po administered via gavage measured during 0 to 72 hrs by radio-HPLC analysis
- Type: ADME, organism-based, Macaca mulatta
- Set-up: dose 1 mg/kg, dosed compound name [14C]Rivoglitazone, route oral
- condition-notes: rhesus monkey, read-out: Compound recovery
assay-metric: dose excreted (%)
Give bare numbers, in %.

**Query** Requested read-out: dose excreted. Entry: COc1ccc2nc(COc3ccc(CC4SC(=O)NC4=O)cc3)n(C)c2c1.Cl (racemic)
**Result** 0.3

###

- experiment: Total clearance in monkey at 0.493 mg/kg, iv administered via tail vein by LC-MS/MS analysis
- Type: ADME, organism-based, Macaca mulatta
- Set-up: dose 0.493 mg/kg, dosed compound name [14C]Rivoglitazone, route intravenous
- condition-notes: rhesus monkey, in vivo
assay-metric: clearance (mL/min/kg)
Give bare numbers, in mL/min/kg.

**Query** Requested read-out: clearance. Entry: COc1ccc2nc(COc3ccc(CC4SC(=O)NC4=O)cc3)n(C)c2c1.Cl (racemic)
**Result** 0.371

###

- experiment: AUC (0 to infinity) in F344/DuCrlCrlj rat at 0.5 mg/kg, iv administered via tail vein by LC-MS/MS analysis
- Format: ADME, organism-based
- Design: time infinity, dose 0.5 mg/kg, dosed compound name [14C]Rivoglitazone, route intravenous
- condition-notes: plasma
assay-metric: AUC(0-inf) (ng·h/mL)
Answers are plain numbers, in ng·h/mL.

**Query** Requested read-out: AUC(0-inf). Entry: COc1ccc2nc(COc3ccc(CC4SC(=O)NC4=O)cc3)n(C)c2c1.Cl (racemic)
**Result** 22900
